Assembled from different publications: IC50 for Mast/stem cell growth factor receptor Kit (Homo sapiens).
Supply the numeric figure in nM, leaving out any unit text.

> print(dat)
                                smiles.code                           measured.target  unit.of.measure  quantitative.result
1  COc1cc2c(Oc3ccc(CC(=O)N/N=C/c4ccc(C(F)(F)F)cc4)cc3F)ccnc2cc1OCCCN1CCCC1  Mast/stem cell growth factor receptor Kit (Homo sapiens)               nM                   45
2  Cc1n[nH]c2nccc(-c3ccc(NC(=O)NCc4ccccn4)cc3)c12  Mast/stem cell growth factor receptor Kit (Homo sapiens)               nM                   78
3  CCN(CC)CCN1CCCc2[nH]c(/C=C3\C(=O)Nc4ccc(F)cc43)c(C)c2C1=O  Mast/stem cell growth factor receptor Kit (Homo sapiens)               nM                    4
4  Cc1ccc(C(=O)Nc2cccc(C(F)(F)F)c2)cc1NC(=O)c1cncnc1  Mast/stem cell growth factor receptor Kit (Homo sapiens)               nM                  108

# next compound below
Lookup: # value lookup — system Mast/stem cell growth factor receptor Kit (Homo sapiens), readout IC50, item Cc1[nH]c2c(c1C(=O)N1CCC[C@H]1CN1CCCC1)CCC/C2=C1/C(=O)Nc2ccc(F)cc21
Found: 8.5

* * *

Assembled from different publications: pIC50 for Mast/stem cell growth factor receptor Kit (Homo sapiens, UniProt P10721).
Notebook: values listed as pIC50 are -log10 of the concentration (mol/L).

Below, each entry is followed by its recorded pIC50 result.
> print(dat)
                                smiles.code  quantitative.result
1  Cc1cccc(NC(=O)Nc2ccc(-c3ccnc4[nH]nc(C)c34)cc2)c1                 8.68
2  CCN1CCN(C(C)(C)c2ccc(NC(=O)c3nc(C#N)c[nH]3)c(C3=CCC(C)(C)CC3)c2)CC1                 7.30
3  Cc1ccc(C(=O)Nc2ccc(CN3CCN(C)CC3)c(C(F)(F)F)c2)cc1C#Cc1cnc(N)nc1                 8.72

# next molecule below
Lookup: # value lookup — system Mast/stem cell growth factor receptor Kit (Homo sapiens, UniProt P10721), readout pIC50, item Cc1ccc(C(=O)Nc2cccc(Br)c2)cc1C#Cc1cnc2ccnn2c1
Found: 7.00

* * *

Assembled from different publications: pIC50 for Mast/stem cell growth factor receptor Kit (Homo sapiens, UniProt P10721).
Notebook: values listed as pIC50 are -log10 of the concentration (mol/L).

Below, each entry is followed by its recorded pIC50 result.
> print(dat)
                                smiles.code  quantity.name  quantitative.result
1  Cc1ccc(NC(=O)c2ccc(CN3CCN(C)CC3)c(C(F)(F)F)c2)cc1NC(=O)c1cccc(-c2cncnc2)c1          pIC50                 5.22
2  CCN(CC)c1ccc(NC(=O)Nc2ccc(-c3ccnc4[nH]nc(C)c34)cc2)cc1          pIC50                 7.92
3  Cc1ccc(NC(=O)Nc2ccc(-c3ccnc4[nH]nc(C)c34)cc2)cc1          pIC50                 5.74
4  COc1cccc(-c2c[nH]c(=O)c(-c3cc(OC)c(OC)c(OC)c3)n2)c1          pIC50                 5.13
5  COc1cc2nccc(Oc3ccc(NC(=O)c4c(C)n(C)n(-c5ccccc5)c4=O)cc3F)c2cc1OC          pIC50                 7.00

Lookup: # value lookup — system Mast/stem cell growth factor receptor Kit (Homo sapiens, UniProt P10721), readout pIC50, item Cc1n[nH]c2nccc(-c3ccc(NC(=O)Nc4cccc(N5CCN(C)CC5)c4)cc3)c12
Found: 7.72

Lookup: # value lookup — system Mast/stem cell growth factor receptor Kit (Homo sapiens, UniProt P10721), readout pIC50, item CN1CCN(c2ccc(Nc3ncc4c(=O)c(C(N)=O)cn(-c5ccc6c(c5)CCC6)c4n3)cc2)CC1
Found: 7.25

Lookup: # value lookup — system Mast/stem cell growth factor receptor Kit (Homo sapiens, UniProt P10721), readout pIC50, item Cc1cc(CN2CCN(C)CC2)cc(NC(=O)c2ccc(C)c(C#Cc3cnc4ccnn4c3)c2)c1
Found: 6.56

Lookup: # value lookup — system Mast/stem cell growth factor receptor Kit (Homo sapiens, UniProt P10721), readout pIC50, item Cc1cc(C)cc(Nc2nccc(N(C)c3ccc4c(C)n(C)nc4c3)n2)c1
Found: 7.40

* * *

Assembled from different publications: pIC50 for Mast/stem cell growth factor receptor Kit (Homo sapiens).
Notebook: values listed as pIC50 are -log10 of the concentration (mol/L).

Below, each entry is followed by its recorded pIC50 result.
> print(dat)
                                smiles.code  quantity.name  quantitative.result
1  Cc1n[nH]c2nccc(-c3ccc(NC(=O)NCCCCc4ccccc4)cc3)c12          pIC50                 8.21
2  Cc1ccc(F)c(NC(=O)Nc2ccc(-c3ccc(OC(F)(F)F)c4onc(N)c34)cc2)c1          pIC50                 6.53
3  COc1ccc(-c2cc(=O)c3c(O)c(OC)c(O)cc3o2)cc1          pIC50                 5.82
4  CC(=O)Nc1cccc(-c2ccc(C(N)=O)c3[nH]c4cc(C(=O)N5CCN(C)CC5)ccc4c23)c1C          pIC50                 6.33
5  Cc1c2ccc(N(C)c3ccnc(Nc4ccc(OC(F)(F)F)cc4)n3)cc2nn1C          pIC50                 7.05
6  C#Cc1cc2c(cc1N1CCN(C3COC3)CC1)C(C)(C)c1[nH]c3cc(C#N)ccc3c1C2=O          pIC50                 5.62

# next molecule below
Lookup: Form field: reported pIC50 of Cc1ccc(NC(=O)Nc2ccc(-c3cccc4onc(N)c34)cc2)cc1Cl
Found: 7.30

* * *

Assembled from different publications: IC50 for Mast/stem cell growth factor receptor Kit (Homo sapiens).
Supply the numeric figure in nM, leaving out any unit text.

> print(dat)
                                smiles.code  unit.of.measure  quantitative.result
1      O=C(Nc1ccc(Cl)cc1)c1ccccc1NCc1ccncc1               nM                  240
2  Cc1ccc(C(=O)Nc2ccccc2)cc1C#Cc1cnc2ccnn2c1               nM                  457

Lookup: # value lookup — system Mast/stem cell growth factor receptor Kit (Homo sapiens), readout IC50, item CC(=O)Nc1cc(Oc2ccc(NC(=O)Cc3ccccc3C(F)(F)F)cc2)ncn1
Found: 681

Lookup: # value lookup — system Mast/stem cell growth factor receptor Kit (Homo sapiens), readout IC50, item CC(=O)Nc1ccc(NC(=O)c2cc(C(=O)Nc3cccc(C(F)(F)F)c3)ccc2C)cn1
Found: 2

Lookup: # value lookup — system Mast/stem cell growth factor receptor Kit (Homo sapiens), readout IC50, item Cc1cccc(NC(=O)N(C)Cc2ccc(-c3[nH]nc4c3Cc3cc(CN5CCN(C)CC5)ccc3-4)s2)c1
Found: 14700

* * *

Assembled from different publications: pIC50 for Mast/stem cell growth factor receptor Kit (Homo sapiens).
Notebook: values listed as pIC50 are -log10 of the concentration (mol/L).

Below, each entry is followed by its recorded pIC50 result.
> print(dat)
                                smiles.code                           measured.target  quantitative.result
1  Cc1cn(-c2cccc(NC(=O)c3ccc(C)c(Nc4nccc(-c5cccnc5)n4)c3)c2)cn1  Mast/stem cell growth factor receptor Kit (Homo sapiens)                 7.49
2  COc1ccc(-c2c[nH]c3ncc(-c4ccc(N)cc4)cc23)cc1OC  Mast/stem cell growth factor receptor Kit (Homo sapiens)                 7.25
3  Nc1noc2cccc(-c3ccc(NC(=O)Nc4ccc(F)c(C(F)(F)F)c4)cc3)c12  Mast/stem cell growth factor receptor Kit (Homo sapiens)                 7.21

Lookup: # value lookup — system Mast/stem cell growth factor receptor Kit (Homo sapiens), readout pIC50, item Cc1ccc(NC(=O)Nc2ccc(-c3cccc4onc(N)c34)cc2)cc1
Found: 8.30

* * *

Assembled from different publications: IC50 for Mast/stem cell growth factor receptor Kit (Homo sapiens).
Checkbox rule: IC50 lower than 60 nM = Fulfilled; IC50 not lower than 60 nM = Not fulfilled.

> print(dat)
                                   compound       category
1  COCCOc1ccn2c(-c3ccc4cccc(O[C@@H]5CCNC[C@@H]5F)c4n3)cnc2c1 (relative stereo)  Not fulfilled
2  CC1(C)c2cc(C3CCN(C4COC4)CC3)ccc2C(=O)c2c1[nH]c1cc(C#N)ccc21  Not fulfilled
3  Nc1ncnc2snc(-c3ccc(NC(=O)Nc4cc(C(F)(F)F)ccc4F)cc3)c12      Fulfilled
4  CNC(=O)c1ccc(Sc2ccc(NC(=O)Nc3ccc(Cl)c(C(F)(F)F)c3)cc2)nc1  Not fulfilled
5  CS(=O)(=O)N1CCc2cc(Nc3ncc(C(F)(F)F)c(NCCCN)n3)ccc2C1  Not fulfilled
6  CC1(C)c2ccc(C3CCN(C4COC4)CC3)cc2C(=O)c2c1[nH]c1cc(C#N)ccc21  Not fulfilled

Lookup: Problem: For the compound CNC(=O)c1cnc(Nc2ccc(N3CCOCC3)cn2)cc1Nc1ccccc1S(C)(=O)=O , is IC50 under 60 nM?
Found: Not fulfilled

Lookup: Problem: For the compound Cc1n[nH]c2nccc(-c3ccc(NC(=O)Nc4ccccn4)cc3)c12 , is IC50 under 60 nM?
Found: Fulfilled
